Tested on: anti-CR2 SCR1-2 mAb 629
assay.comment: MBP-CR2 SCR1-2-629 mAb ELISA
Assay type: binding
condition.details: mutant MBP-CR2 SCR1-2 relative to wild-type; plate-bound 629 mAb
measured.attribute: % 629 mAb Bindng
Write down the value, and be sure its unit follows.

{"molecule": "S32A: single-site mutant of recombinant MBP-CR2 SCR1-2 (protein, left off: large carriers; small tags and cut ends) ISCGSPPPILNGRISYYSTPIAVGTVIRYSCAGTFRLIGEKSLLCITKDKVDGTWDKPAPKCEYFNKYSSCPEPIVPGGYKIRGSTPYRHGDSVTFACKTNFSMNGNKSVWCQANNMWGPTRLPTCVSVFPLE", "% 629 mAb Bindng": "117.8%"}

I have 2 molecules here; please give me % 629 mAb Bindng for each one.
1. K57A: single-site mutant of recombinant MBP-CR2 SCR1-2 (protein, left off: large carriers; small tags and cut ends) ISCGSPPPILNGRISYYSTPIAVGTVIRYSCSGTFRLIGEKSLLCITKDKVDGTWDAPAPKCEYFNKYSSCPEPIVPGGYKIRGSTPYRHGDSVTFACKTNFSMNGNKSVWCQANNMWGPTRLPTCVSVFPLE
2. R13A: single-site mutant of recombinant MBP-CR2 SCR1-2 (protein, left off: large carriers; small tags and cut ends) ISCGSPPPILNGAISYYSTPIAVGTVIRYSCSGTFRLIGEKSLLCITKDKVDGTWDKPAPKCEYFNKYSSCPEPIVPGGYKIRGSTPYRHGDSVTFACKTNFSMNGNKSVWCQANNMWGPTRLPTCVSVFPLE

85.5%
108.1%

Provenance of the data: patent US20120108492A1
